B1: Azoarcus group I ribozyme (parent)
chain: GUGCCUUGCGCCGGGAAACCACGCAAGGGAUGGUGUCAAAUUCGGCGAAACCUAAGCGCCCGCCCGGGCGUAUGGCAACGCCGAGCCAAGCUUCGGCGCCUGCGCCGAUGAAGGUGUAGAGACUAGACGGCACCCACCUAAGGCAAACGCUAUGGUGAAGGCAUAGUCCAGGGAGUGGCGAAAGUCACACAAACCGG

Variants of: B1
PROCEDURE SUMMARY: reverse-splicing fitness (ratio to wild type); higher = more active; in vitro selection; Mg2+ level not given
Everything with reverse-splicing fitness lower than 0.009 is class 0; everything else, including exactly 0.009, is class 1.

| MUTANT | CLASS NAME |
| --- | --- |
| C82A A111C A120C A145U C169A | class 0 |
| C82A A111G A120G A145U C169A U176A | class 1 |
| C82G A120G A145U C150G C169A | class 1 |
| C82G A111U A120G A145C C169A U176G | class 0 |
| C82G A111G C150U C169A | class 1 |
| A111G A120U A145C C150A U176G | class 0 |
| A111U A120U U176G | class 1 |
| C82U A120G A145G C150U U176A | class 1 |
| A120G C150A C169G U176C | class 1 |
| C82A A111U A145C C150A | class 1 |
| C82U A120U A145U C150G C169A | class 0 |
| C82A A111G A120U A145G C169A | class 0 |
| C82U A111C A120U A145G C169A U176G | class 0 |
